What follows is literature data on Ki for 5-hydroxytryptamine receptor 5A (Homo sapiens, UniProt P47898).

Exam item: Reported Ki for 5-hydroxytryptamine receptor 5A (Homo sapiens, UniProt P47898), given "Cc1ccc(NC(=N)NCc2ccccc2OC(F)F)nc1" ?
Marked response: < 100 nM

Exam item: Reported Ki for 5-hydroxytryptamine receptor 5A (Homo sapiens, UniProt P47898), given "CC(C)n1cc(C2=CCCc3ccc(C(=O)N=C(N)N)cc32)cn1" ?
Marked response: 30 to 300 nM

Exam item: Reported Ki for 5-hydroxytryptamine receptor 5A (Homo sapiens, UniProt P47898), given "COc1ccc(-c2cccc3ccc(C(=O)N=C(N)N)cc23)cn1" ?
Marked response: 3 to 30 nM

Exam item: Reported Ki for 5-hydroxytryptamine receptor 5A (Homo sapiens, UniProt P47898), given "NC(N)=NC(=O)c1ccc2c(c1)[nH]c1ccccc12" ?
Marked response: 2.8 nM

Exam item: Reported Ki for 5-hydroxytryptamine receptor 5A (Homo sapiens, UniProt P47898), given "COc1ccccc1CNC(=N)Nc1nc(-c2ccc3c(c2)OCO3)cs1" ?
Marked response: 50 to 500 nM

Exam item: Reported Ki for 5-hydroxytryptamine receptor 5A (Homo sapiens, UniProt P47898), given "COc1ccccc1CNC(=N)Nc1nc(C(F)(F)F)cs1" ?
Marked response: > 500 nM

Exam item: Reported Ki for 5-hydroxytryptamine receptor 5A (Homo sapiens, UniProt P47898), given "NC(N)=NC(=O)c1ccc2c(c1)C(c1cc(C(F)(F)F)ccc1F)=CCO2" ?
Marked response: 3 to 30 nM

Exam item: Reported Ki for 5-hydroxytryptamine receptor 5A (Homo sapiens, UniProt P47898), given "NC(N)=NC(=O)c1ccc2c(c1)C(c1ccncc1)=CCC2" ?
Marked response: 3 to 30 nM

Exam item: Reported Ki for 5-hydroxytryptamine receptor 5A (Homo sapiens, UniProt P47898), given "COc1cccc(F)c1CNC(=N)Nc1nccs1" ?
Marked response: < 50 nM

Exam item: Reported Ki for 5-hydroxytryptamine receptor 5A (Homo sapiens, UniProt P47898), given "N#Cc1ccc(C2=CCCc3ccc(C(=O)N=C(N)N)cc32)cc1" ?
Marked response: 0.3 to 3 nM

====

pKi: −log10 of the molar value.
What follows is literature data on pKi for 5-hydroxytryptamine receptor 5A (Homo sapiens).

Exam item: Reported pKi for 5-hydroxytryptamine receptor 5A (Homo sapiens), given "NC(N)=NC(=O)c1ccc2cccc(C3CC3)c2c1" ?
Marked response: 7.52 to 8.52

Exam item: Reported pKi for 5-hydroxytryptamine receptor 5A (Homo sapiens), given "NC(N)=NC(=O)c1ccc2c(c1)C(c1ccccc1)=C(F)CO2" ?
Marked response: 9.01

Exam item: Reported pKi for 5-hydroxytryptamine receptor 5A (Homo sapiens), given "CN(C)Cc1cccc(C2=CCCc3ccc(C(=O)N=C(N)N)cc32)c1" ?
Marked response: 7.52 to 8.52

Exam item: Reported pKi for 5-hydroxytryptamine receptor 5A (Homo sapiens), given "NC(N)=NC(=O)c1ccc2c(c1)C(c1ccc(Cl)cc1F)=CCC2" ?
Marked response: 8.52 to 9.52

Exam item: Reported pKi for 5-hydroxytryptamine receptor 5A (Homo sapiens), given "COc1cccc(OC)c1Cc1cc2cc(F)ccc2nc1N" ?
Marked response: > 6.52

====

What follows is literature data on Ki for 5-hydroxytryptamine receptor 5A (Homo sapiens, UniProt P47898).

Exam item: Reported Ki for 5-hydroxytryptamine receptor 5A (Homo sapiens, UniProt P47898), given "CCN(CC)c1ccc(-c2csc(NC(=N)NCc3c(OC)cccc3OC)n2)cc1" ?
Marked response: 50 to 500 nM

Exam item: Reported Ki for 5-hydroxytryptamine receptor 5A (Homo sapiens, UniProt P47898), given "NC(N)=NC(=O)c1ccc2cccc(-c3cncc4ccccc34)c2c1" ?
Marked response: 3 to 30 nM

Exam item: Reported Ki for 5-hydroxytryptamine receptor 5A (Homo sapiens, UniProt P47898), given "COc1cccc(OC)c1CNC(=N)Nc1nc(N2CCOCC2)cs1" ?
Marked response: 50 to 500 nM

Exam item: Reported Ki for 5-hydroxytryptamine receptor 5A (Homo sapiens, UniProt P47898), given "CC1=C(c2ccccc2)c2cc(C(=O)N=C(N)N)ccc2CC1" ?
Marked response: 2.3 nM

Exam item: Reported Ki for 5-hydroxytryptamine receptor 5A (Homo sapiens, UniProt P47898), given "NC(N)=NC(=O)c1ccc2c(c1)C(c1cc(F)ccc1Cl)=CCC2" ?
Marked response: 3 to 30 nM

====

What follows is literature data on Ki for 5-hydroxytryptamine receptor 5A (Homo sapiens).

Exam item: Would you kindly share the measured Ki for COc1cccc(OC)c1CNC(=N)Nc1nc(C2CCCN2C(C)=O)cs1 (stereo not drawn) ?
Marked response: < 50 nM

Exam item: Would you kindly share the measured Ki for "Cc1cc(Cn2c3ccccc3c3ccc(C(=O)N=C(N)N)cc32)no1" ?
Marked response: ≤ 50 nM

Exam item: Would you kindly share the measured Ki for "NC(N)=NC(=O)c1ccc2c(c1)C(c1cccc(F)c1Cl)=CCO2" ?
Marked response: 0.3 to 3 nM

Exam item: Would you kindly share the measured Ki for "COc1ccccc1CNC(=N)Nc1ncc(C)s1" ?
Marked response: < 50 nM

Exam item: Would you kindly share the measured Ki for "COc1ccccc1CNC(=N)Nc1nc(-c2ccc(NS(C)(=O)=O)cc2)cs1" ?
Marked response: > 500 nM

Exam item: Would you kindly share the measured Ki for "COc1cccc(OC)c1CNC(=N)Nc1cccc(-c2ccc(F)cc2)n1" ?
Marked response: < 100 nM

Exam item: Would you kindly share the measured Ki for "N#Cc1ccc(-c2c(F)ccc3ccc(C(=O)N=C(N)N)cc23)cc1" ?
Marked response: 0.3 to 3 nM

Exam item: Would you kindly share the measured Ki for "COc1ccccc1CNC(=N)Nc1nc(-c2ccccc2C(F)(F)F)cs1" ?
Marked response: 50 to 500 nM

Exam item: Would you kindly share the measured Ki for "COc1cccc(F)c1CNC(=N)Nc1nc(-c2ccccc2)cs1" ?
Marked response: < 50 nM

Exam item: Would you kindly share the measured Ki for "COC(=O)c1sc(NC(=N)NCc2c(OC)cccc2OC)nc1-c1ccc(F)cc1" ?
Marked response: < 50 nM

Exam item: Would you kindly share the measured Ki for "Cc1cc(C)c(C2=CCCc3ccc(C(=O)N=C(N)N)cc32)c(C)c1" ?
Marked response: 3 to 30 nM

Exam item: Would you kindly share the measured Ki for CC1(C)CCC(c2c(F)cc(F)cc2F)c2cc(C(=O)N=C(N)N)ccc21 (stereo not drawn) ?
Marked response: 30 to 300 nM

Exam item: Would you kindly share the measured Ki for "COc1ccccc1Cn1cc(-c2cccc(NS(=O)(=O)C(C)C)c2)nc1N" ?
Marked response: < 600 nM

Exam item: Would you kindly share the measured Ki for "COc1cccc(OC)c1CNC(=N)Nc1nc(-c2cc(C)cs2)cs1" ?
Marked response: < 50 nM

Exam item: Would you kindly share the measured Ki for "COc1cccc(F)c1Cc1cc2ccc(Cl)cc2nc1N" ?
Marked response: < 300 nM

Exam item: Would you kindly share the measured Ki for "COc1cccc(C)c1CNC(=N)Nc1cccc(Br)n1" ?
Marked response: < 100 nM

Exam item: Would you kindly share the measured Ki for "NC(N)=NC(=O)c1ccc2cccc(-c3cncc(F)c3)c2c1" ?
Marked response: 3 to 30 nM

Exam item: Would you kindly share the measured Ki for "COc1cccc(OC)c1CNC(=N)Nc1nc(-c2ccnc3c(F)cccc23)cs1" ?
Marked response: < 50 nM

Exam item: Would you kindly share the measured Ki for "NC(N)=NC(=O)c1ccc2cccc(-c3ccc(Cl)cc3O)c2c1" ?
Marked response: 0.3 to 3 nM

Exam item: Would you kindly share the measured Ki for "NC(N)=NC(=O)c1ccc2cccc(-c3c(F)cncc3F)c2c1" ?
Marked response: 0.3 to 3 nM

Exam item: Would you kindly share the measured Ki for "N#Cc1ccc(-c2cccc3ccc(C(=O)N=C(N)N)cc23)c(O)c1" ?
Marked response: 0.3 to 3 nM

Exam item: Would you kindly share the measured Ki for "Cc1ccncc1-c1cccc2ccc(C(=O)N=C(N)N)cc12" ?
Marked response: 3 to 30 nM

Exam item: Would you kindly share the measured Ki for "COc1cccc(CN/C(N)=N/C(=O)c2ccc3c4ccccc4n(C4CCOCC4)c3c2)c1" ?
Marked response: ≤ 50 nM

Exam item: Would you kindly share the measured Ki for "COc1cccc(OC)c1CNC(=N)Nc1nc(-c2ccccc2)co1" ?
Marked response: < 50 nM

====

pKi: −log10 of the molar value.
What follows is literature data on pKi for 5-hydroxytryptamine receptor 5A (Homo sapiens).

Exam item: Reported pKi for 5-hydroxytryptamine receptor 5A (Homo sapiens), given "NC(N)=NC(=O)c1ccc2cccc(-c3ccncc3F)c2c1" ?
Marked response: 8.52 to 9.52

Exam item: Reported pKi for 5-hydroxytryptamine receptor 5A (Homo sapiens), given "NC(N)=NC(=O)c1ccc2c(F)ccc(-c3c(F)cccc3F)c2c1" ?
Marked response: 8.52 to 9.52

Exam item: Reported pKi for 5-hydroxytryptamine receptor 5A (Homo sapiens), given "COCCN/C(N)=N/C(=O)c1ccc2c3ccccc3n(Cc3cccs3)c2c1" ?
Marked response: ≥ 7.30

Exam item: Reported pKi for 5-hydroxytryptamine receptor 5A (Homo sapiens), given "Cc1ccsc1-c1cccc2ccc(C(=O)N=C(N)N)cc12" ?
Marked response: 8.52 to 9.52

Exam item: Reported pKi for 5-hydroxytryptamine receptor 5A (Homo sapiens), given "NC(N)=NC(=O)c1ccc2ccc(Cl)c(-c3ccccc3F)c2c1" ?
Marked response: 8.52 to 9.52

Exam item: Reported pKi for 5-hydroxytryptamine receptor 5A (Homo sapiens), given "N#Cc1c(F)cccc1-c1cccc2ccc(C(=O)N=C(N)N)cc12" ?
Marked response: 7.52 to 8.52

Exam item: Reported pKi for 5-hydroxytryptamine receptor 5A (Homo sapiens), given "Cc1ccc(-c2cccc3ccc(C(=O)N=C(N)N)cc23)cn1" ?
Marked response: 7.52 to 8.52

Exam item: Reported pKi for 5-hydroxytryptamine receptor 5A (Homo sapiens), given "COc1ccc(-c2cc(NC(=N)NCc3ccccc3OC)n[nH]2)cc1" ?
Marked response: > 7.30

Exam item: Reported pKi for 5-hydroxytryptamine receptor 5A (Homo sapiens), given "N#Cc1ccc2ccc(C(=O)N=C(N)N)cc2c1-c1ccc(F)cc1F" ?
Marked response: 7.52 to 9.00

Exam item: Reported pKi for 5-hydroxytryptamine receptor 5A (Homo sapiens), given "CC1(C)C=C(c2cc(F)c(F)cc2F)c2cc(C(=O)N=C(N)N)ccc2O1" ?
Marked response: 6.52 to 7.52

Exam item: Reported pKi for 5-hydroxytryptamine receptor 5A (Homo sapiens), given "COc1ccccc1Cn1cc(-c2csc(-c3ccccc3)n2)nc1N" ?
Marked response: > 6.22

Exam item: Reported pKi for 5-hydroxytryptamine receptor 5A (Homo sapiens), given "COc1ccccc1CNC(=N)Nc1cc2ccccc2cn1" ?
Marked response: > 7.00

Exam item: Reported pKi for 5-hydroxytryptamine receptor 5A (Homo sapiens), given "COc1ccccc1CNC(=N)Nc1ccc(-c2cccs2)cn1" ?
Marked response: > 7.00

Exam item: Reported pKi for 5-hydroxytryptamine receptor 5A (Homo sapiens), given "N#Cc1cccc(Cl)c1-c1cccc2ccc(C(=O)N=C(N)N)cc12" ?
Marked response: 7.52 to 8.52

Exam item: Reported pKi for 5-hydroxytryptamine receptor 5A (Homo sapiens), given "COc1ccccc1CNC(=N)Nc1cccc(-c2cccs2)n1" ?
Marked response: > 7.00

Exam item: Reported pKi for 5-hydroxytryptamine receptor 5A (Homo sapiens), given "COc1ccccc1C(=O)NC(=N)Nc1nccs1" ?
Marked response: < 6.30

Exam item: Reported pKi for 5-hydroxytryptamine receptor 5A (Homo sapiens), given "COc1cccc(OC)c1CNC(N)=NC(=O)c1ccc2c3ccccc3n(C3CCOCC3)c2c1" ?
Marked response: ≥ 7.30

Exam item: Reported pKi for 5-hydroxytryptamine receptor 5A (Homo sapiens), given "COc1ccccc1Cc1cc2c(Cl)cccc2nc1N" ?
Marked response: > 6.52

Exam item: Reported pKi for 5-hydroxytryptamine receptor 5A (Homo sapiens), given "NC(N)=NC(=O)c1ccc2cccc(-c3cc(Cl)c(F)cc3F)c2c1" ?
Marked response: 8.52 to 9.52

Exam item: Reported pKi for 5-hydroxytryptamine receptor 5A (Homo sapiens), given "COc1cccc(OC)c1CNC(=N)Nc1ccc(C)cn1" ?
Marked response: > 7.00

Exam item: Reported pKi for 5-hydroxytryptamine receptor 5A (Homo sapiens), given "CCOc1ncc(Cl)c(-c2cccc3ccc(C(=O)N=C(N)N)cc23)c1Cl" ?
Marked response: 8.52 to 9.52

Exam item: Reported pKi for 5-hydroxytryptamine receptor 5A (Homo sapiens), given "NC(N)=NC(=O)c1ccc2c(c1)C(c1c(F)cccc1Cl)=CCO2" ?
Marked response: 8.52 to 9.52

Exam item: Reported pKi for 5-hydroxytryptamine receptor 5A (Homo sapiens), given "COc1cccc(Cl)c1CNC(=N)Nc1nc(-c2ncccn2)cs1" ?
Marked response: > 7.30

Exam item: Reported pKi for 5-hydroxytryptamine receptor 5A (Homo sapiens), given "NC(N)=NC(=O)c1ccc2ccc(F)c(-c3ccncc3F)c2c1" ?
Marked response: 8.52 to 9.52

Exam item: Reported pKi for 5-hydroxytryptamine receptor 5A (Homo sapiens), given "Cc1ccccc1CNC(=N)Nc1nccs1" ?
Marked response: < 6.30

Exam item: Reported pKi for 5-hydroxytryptamine receptor 5A (Homo sapiens), given "NC(N)=NC(=O)c1ccc2cccc(-c3ccc(F)c4c3C(=O)CC4)c2c1" ?
Marked response: 6.52 to 7.52

Exam item: Reported pKi for 5-hydroxytryptamine receptor 5A (Homo sapiens), given "NC(N)=NC(=O)c1ccc2cccc(-c3ccnc(C4CC4)c3C3CC3)c2c1" ?
Marked response: 7.52 to 8.52

Exam item: Reported pKi for 5-hydroxytryptamine receptor 5A (Homo sapiens), given "NC(N)=NC(=O)c1ccc2cccc(-c3c(F)ccc(F)c3O)c2c1" ?
Marked response: 8.52 to 9.52

Exam item: Reported pKi for 5-hydroxytryptamine receptor 5A (Homo sapiens), given "NC(N)=NC(=O)c1ccc2c(c1)C(c1ccc(F)cc1Cl)=CCC2" ?
Marked response: 8.52 to 9.52

Exam item: Reported pKi for 5-hydroxytryptamine receptor 5A (Homo sapiens), given "COc1ccc(-c2cccc3ccc(C(=O)N=C(N)N)cc23)c(F)c1" ?
Marked response: 8.52 to 9.52

Exam item: Reported pKi for 5-hydroxytryptamine receptor 5A (Homo sapiens), given "COc1ccccc1Cc1cc2cc(F)ccc2nc1N" ?
Marked response: > 6.52

Exam item: Reported pKi for 5-hydroxytryptamine receptor 5A (Homo sapiens), given "CC1(C)C=C(c2c(F)cccc2F)c2cc(C(=O)N=C(N)N)ccc2O1" ?
Marked response: 7.52 to 8.52
